Biological target: VEGF165 (Homo sapiens, UniProt P15692-4 P15692-4:27-191)
Sequence (P15692 other isoform, or with tags, fused parts or gaps): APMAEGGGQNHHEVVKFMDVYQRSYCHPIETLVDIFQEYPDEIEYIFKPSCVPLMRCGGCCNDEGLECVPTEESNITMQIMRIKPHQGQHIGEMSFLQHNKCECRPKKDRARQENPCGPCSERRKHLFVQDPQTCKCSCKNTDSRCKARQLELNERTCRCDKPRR
Experiment: filter; 37 C; variable region ends GGCT in table, GGGU in listing
Conditions: tags: carrier-free, Sf 21 insect cell expressed, R & D Systems; chain copies: 2 (inferred)
QUANTITY: Kd

BINDER | QUANTITY | RESULT
VP40.39 (ssRNA, 2'-F pyrimidines) RNA: GGGAGGACGAUGCGGCAGUUAAUUAACUUGAGUUGUGAUGUGUGUCGUUAUGGGUCAGACGACUCGCCCGA | Kd | 73 nM
